target: SARS-CoV-2 RBD-hFc (SARS-CoV-2, UniProt P0DTC2 319-541); experiment: cell-based or functional assay
A collection of binders and their measured IC50, 세포내 유입(internalization) 억제, HEK293E/ACE2-GFP
Response body: numeric value in nM, unit text excluded.

| BINDER | UNIT DESCRIPTOR | QUANTITATIVE READOUT |
| --- | --- | --- |
| SA4055 (antibody, V domains shown) VH: EVQLVQSGGGLVQPGGSLRLSCAASVITVSSNYMSWVRQAPGKGLEWVSVIYPGGSTYYADSVKGRFTISRDKSKNTLYLQMNSLRAEDTAVYYCARDLDIVGGMDVWGQGTTVTVSS VL: QSALTQPASVSGSPGQSITISCTGTSSDVGDYNLVSWYQQHPGKAPKVMIYDVSHRPSGVSNRFSGSKSGNTASLTISGLQAEDEADYYCSSYTSSTTVVFGGGTKLTVL | nM | 37.1 |
| SA3755 (antibody, V domains shown) VH: QMQLVESGGGVVQPGGSLRLSCAASGFTFDDHTMHWVRQAPGKGLEWVSLISWDGGSTYYADSVKGRFTISRDNSKNSLYLQMNSLRAEDTAVYYCTRDASRRPGDGGYDFDVWGQGTQVTVSS VL: QAVVTQEPSLTVSPGGTVTLTCGSSTGTVTRGHWPYWFQQKPGQAPRTLIYDTDNKHSWTPARFSGSLLGGKAALTLSGAQPEDEADYYCLLSYSDSRVFGTGTKVTVL | nM | 40 |

SA4053 (antibody, V domains shown) VH: EVQLVQSGGGLVQPGGSLRLSCADSGFTFSSYWMSWVRQVPGKGLEWVANIKQDGSEKYYVDSVKGRFTISRDNAKNSLYLQMNSLRAEDTAVYYCARDVGRGYCSSTSCYRFGGREDFFDYWGQGTLVTVSS VL: QLVLTQPPSVSAAPGQRVTISCSGSFSNVGNNFVSWYRHLPGTAPELLIYDNNQRPSGIPDRFSASKSGTSATLAITGLHTGDEADYYCGTWDTSLSGVVFGGGTKLTVL has a reported IC50, 세포내 유입(internalization) 억제, HEK293E/ACE2-GFP of 62.7

Just for reference, patent KR20220054080A is where these values come from.
